target: 5-HT1A (h), human recombinant (CHO cells) (Homo sapiens, UniProt P08908); construct: expressed in transfected cells; host or cells: CHO cells; assay: Cellular functional assay 5-HT1A (h) antagonism; type: cell-based; conditions: compound 1×10^−6 M; stimulus 8-OH-DPAT 10 nM
Sequence (P08908 whole entry): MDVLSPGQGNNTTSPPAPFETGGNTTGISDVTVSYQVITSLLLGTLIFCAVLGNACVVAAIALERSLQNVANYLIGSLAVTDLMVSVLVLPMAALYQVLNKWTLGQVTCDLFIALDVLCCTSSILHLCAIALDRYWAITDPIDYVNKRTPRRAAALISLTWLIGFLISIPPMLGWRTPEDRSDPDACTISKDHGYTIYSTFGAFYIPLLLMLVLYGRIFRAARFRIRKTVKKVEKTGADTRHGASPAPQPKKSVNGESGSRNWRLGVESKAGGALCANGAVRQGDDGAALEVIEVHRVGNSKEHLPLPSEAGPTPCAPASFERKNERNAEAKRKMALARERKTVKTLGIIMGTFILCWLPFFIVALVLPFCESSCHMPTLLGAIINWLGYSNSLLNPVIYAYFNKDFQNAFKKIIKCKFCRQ
Reported 5-HT1A-antag [%] values for the following compounds.
Give just the number in %; leave the unit off.

Solved entries:
Recorded 5-HT1A-antag [%] of O=C1CCc2ccc(OCCCCN3CCN(c4cccc5c4ccn5Cc4cccc(F)c4)CC3)cc2N1 [Compound 63] , please.
73

Then O=C1CCc2ccc(OCCCCN3CCN(c4cccc5c4ccn5S(=O)(=O)c4ccccc4)CC3)cc2N1 [Compound 24] ?
0

Now give it for O=C1CCc2ccc(OCCCN3CCN(c4cccc5c4ccn5S(=O)(=O)c4ccccc4)CC3)cc2N1 [Compound 23] too.
20

What do you have for NC(=O)c1ccccc1OCCCN1CCN(c2cccc3c2ccn3S(=O)(=O)c2ccccc2)CC1 [Compound 72] ?
61

Next compound: O=C1CCc2ccc(OCCCN3CCN(c4cccc5c4ccn5Cc4ccccc4)CC3)cc2N1 [Compound 4]
17

Continuing:
Reported 5-HT1A-antag [%] for O=C1CCc2ccc(OCCCCN3CCN(c4cccc5c4ccn5Cc4ccccc4)CC3)cc2N1 [Compound 5] : what is it?
31

Also O=C1CCc2ccc(OCCCCN3CCN(c4cccc5c4ccn5Cc4cccc(Cl)c4)CC3)cc2N1 [Compound 67] , if possible.
56
